Each entry below lists one item and its recorded melting point value.

Below, each entry is followed by its recorded melting point result.
- COMPOUND: "CCCCCCCCCCc1ccc2cc(SC)c(OS(=O)(=O)C(F)(F)F)cc2c1"
  melting point: "149 to 150 °C"
- COMPOUND: "COc1cc(OCc2ccccn2)ccc1/C=C/C(=O)CC(=O)/C=C/c1cc2ccccc2o1"
  melting point: "126 to 128 °C"

Reported melting point ( `CCc1nc2c(C)cc(C)nc2n1Cc1ccc(NCC2CCNCC2)cc1` ) = 165 to 168 °C

Reported melting point ( `CCCCCCCCCOc1ccccc1/C=C/C(C)=C/C=C/C(C)=C\C(=O)O` ) = 135 to 136 °C

Reported melting point ( `CC(=O)N(C(C)=O)C1=C(N2CCN(Cc3cc(=O)[nH]c(=O)[nH]3)CC2)C(=O)c2ccccc2C1=O` ) = 152 to 154 °C

Reported melting point ( CCCCCC(CC(=O)Nc1cc(CCCNC(N)=O)ccc1C(C)(C)C)c1ccc(OC)cc1OC (stereo not given) ) = 125 °C

* * *

OBSERVABLE: melting point

Reported melting point ( CCOC(=O)c1cnn2c1c(NC(C)CC)nc1ccccc12 (stereo not given) ) = 82 to 84 °C

Reported melting point ( `COc1ccc(CCNc2nc(O)c(C(=O)c3ccco3)c(O)n2)cc1OC` ) = > 250 °C

Reported melting point ( `COc1ccc(Nc2nc(C)ncc2S(=O)(=O)c2ccc(OCc3ccccc3)cc2)c(C)c1` ) = 110 to 114 °C

Reported melting point ( `O=[N+]([O-])c1ccc(F)c(I)c1F` ) = 46.1 to 47.5 °C

Reported melting point ( `CN1C(=O)CC[C@]2(C)c3ccc(-c4c(F)c(F)c(Cl)c(F)c4F)cc3CC[C@@H]12` ) = 150 to 151 °C

Reported melting point ( `Cc1nc(-c2ccccc2)ncc1C(=O)c1ccccc1` ) = 68 to 72 °C

Reported melting point ( CCOc1ccc(C(OC2CCN(CCCCCC(=O)O)CC2)c2ccccc2)cc1 (stereo not given) ) = 110 to 112 °C

Reported melting point ( CC(CCC1C(C)CCCC1(C)C)Oc1ccc(C(=O)O)cc1 (stereo not given) ) = 114 to 118 °C

Reported melting point ( `COc1cc2cc(C(=O)O)sc(=O)c2cc1OC` ) = 306 to 307 °C

* * *

OBSERVABLE: melting point

Below, each entry is followed by its recorded melting point result.
- MOLECULE: "C=CCc1c(C(C)C)nc(C(C)C)c(CO)c1-c1ccc(F)cc1"
  melting point: "69 to 71 °C"
- MOLECULE: "O=C(O)c1ccc(-c2nnc(-c3ccc(C(F)(F)F)cc3)o2)cc1"
  melting point: "> 300 °C"
- MOLECULE: "NNC(=O)c1ccc(OCc2ccccc2)cn1"
  melting point: "140 to 142 °C"
- MOLECULE: "COC(=O)c1ccc(Cc2cn(C)c3ccc(C(=O)NCC(C)CC(F)(F)F)cc23)c(OC)c1 (stereo not drawn)"
  melting point: "150 to 151 °C"
- MOLECULE: "CCCCOC(=O)[C@H](Cc1ccc(O)cc1)NC(=O)C1(NC(=O)[C@@H](S)C(C)C)CCCC1"
  melting point: "182 to 183 °C"
- MOLECULE: "OCCOc1csc2ccccc12"
  melting point: "55 to 56 °C"
- MOLECULE: "CCC(NC(=O)Cc1ccccc1)C(=NNC(N)=S)c1ccccc1 (stereo not drawn)"
  melting point: "121 to 124 °C"
- MOLECULE: "Oc1ccc(Cl)c2c1CCCC2"
  melting point: "58 to 59 °C"
- MOLECULE: "Cc1oc(-c2ccco2)nc1COc1ccc(Cn2cc(CCC(=O)O)c(OCc3ccccc3)n2)cc1"
  melting point: "104 to 105 °C"
- MOLECULE: "O=C1c2cc(N(CCO)CCO)ccc2OC12CC2"
  melting point: "96 to 97 °C"

Reported melting point ( `CCOC(=O)c1c(CN2CCCCC2)nc2cc3c(cc2c1-c1ccc(OC)c(OC)c1)OCCO3` ) = 158 to 160 °C

Reported melting point ( `COc1ccc(C=O)nc1I` ) = 118 to 121 °C

Reported melting point ( CC(=O)C1(C)CCc2c(C)c(O)c(C)c(C)c2O1 (stereo not drawn) ) = 97 to 98 °C

Reported melting point ( CC(O)c1cccc2c1OCO2 (stereo not drawn) ) = 45 to 46 °C

Reported melting point ( `COC(=O)/C(C)=C/COc1cccc(O)c1` ) = 79 to 81 °C

Reported melting point ( `ON=C1CCC2(CC1)Cc1ccccc1C2` ) = 120 to 122 °C

Reported melting point ( `Nc1c(C(F)(F)F)cnn1-c1c(Cl)cc(C(F)(F)F)cc1Cl` ) = 106 °C

Reported melting point ( `CC(C)[C@H]1C(=O)OCN1C(=O)OCc1ccccc1` ) = 54 to 55 °C

Reported melting point ( `CC(=O)Nc1nc(S(=O)(=O)Cl)n[nH]1` ) = 177 °C

Reported melting point ( `Cc1nc(C)nc(-c2cccc(-c3ccccc3C)n2)n1` ) = 86.8 °C

Reported melting point ( `COCCOc1ccc(CO)c(Oc2ncc(C(F)(F)F)cc2Cl)c1` ) = 85 to 85.5 °C

Reported melting point ( `CCc1nn(-c2ccc3cc(-c4ccc(-n5cnnc5)cc4)c(=O)oc3c2)nc1C` ) = 321 to 323 °C

Reported melting point ( `O=C(c1ccccc1)c1[nH]c2cc(Cl)ccc2c1NC(=O)C(F)(F)F` ) = 165 to 168 °C
